READOUT_TYPE: melting point

-- ask Give the measured melting point of CC(C)(C)C(O)(Cn1cncn1)C(Cl)=CCl (stereo unspecified) .
-- reply 49 to 52 °C

-- ask Same read-out for C[C@H](C(=O)O)c1ccc2cc(OCCCCCCc3cccc(OCc4ccccc4)c3OCc3ccccc3)ccc2c1 ?
-- reply 66 to 70 °C

-- ask Same read-out for CC1COC(=O)N1c1cc(-c2ccnc(Nc3cccc(Cl)c3)n2)ccn1 (stereo unspecified) ?
-- reply 177 to 178 °C

-- ask Same read-out for COc1ccc(C2C(C#N)=C(N)Oc3c2ccc2cnccc32)cc1OC (stereo unspecified) ?
-- reply 215 to 218 °C

-- ask Same read-out for Cn1c2ccccc2c2cc(NC(=O)c3ccccc3Cl)ccc21 ?
-- reply 206 °C

-- ask Same read-out for CC(C)(C)c1cc(O)no1 ?
-- reply 99 to 101 °C

-- ask Same read-out for O=C(NCc1ccccc1)c1cnccc1-c1ccccc1 ?
-- reply 164 to 166 °C

-- ask Same read-out for NS(=O)(=O)c1c(Cl)cccc1-c1ccccc1Cl ?
-- reply 151 to 153 °C

-- ask Same read-out for CC(=O)N(C)c1scc(C)c1C(=O)c1ccccc1 ?
-- reply 122 °C

-- ask Same read-out for COc1ccc(C(=O)c2ccc(=O)[nH]c2C=CN(C)C)cc1 ?
-- reply 216 to 218 °C

-- ask Same read-out for O=C1CN=C(c2ccccc2F)c2cc(Cl)ccc2N1CC(O)CO (stereo unspecified) ?
-- reply 117 to 118 °C

----------
READOUT_TYPE: melting point

-- ask Give the measured melting point of CCOC(=O)c1cc2cc(/C=C/C(=O)c3cc(OC)c(OC)c(OC)c3)cc(C(C)CC)c2oc1=O (centres undefined) .
-- reply 138 to 139 °C

-- ask Same read-out for COc1cccc2c1C(CC(C)=O)NC2=O (centres undefined) ?
-- reply 176 to 178 °C

-- ask Same read-out for CCOC(=O)C(NC(C)=O)(C(=O)OCC)C1=Nc2ccc(C#N)cc2C(c2ccccc2F)=NC1 ?
-- reply 138 to 140 °C

-- ask Same read-out for CC(C)CC(NC(=O)C(Cc1c[nH]cn1)NC(=O)C(CC(=O)NCCc1ccccc1)Cc1cccc2ccccc12)C(O)CNCc1ccccc1 (mixture of isomers) ?
-- reply 108 to 113 °C

-- ask Same read-out for CCOP(=O)(CSCCOn1cnc2c(N)ncnc21)OCC ?
-- reply 93 to 95 °C

-- ask Same read-out for CCCCONc1ncn(-c2c(C)cccc2C)c(=O)n1 ?
-- reply 144 to 145 °C

-- ask Same read-out for O=C(CCCCCCSc1ccccc1)c1ncco1 ?
-- reply 39 to 40 °C

-- ask Same read-out for CCCc1ccc(NC(=O)c2ccccc2C(c2ccc(O)cc2)c2ccc(O)cc2)cc1 ?
-- reply 218 to 219 °C

-- ask Same read-out for CCCCC(=O)NC(Cc1ccccc1)C(=O)Nc1c(C(C)C)cccc1C(C)C (centres undefined) ?
-- reply 237 to 238 °C

----------
I'd be grateful if you could share measured melting point for these entries.

-- ask Give the measured melting point of CS(=O)(=O)NC(CCCCCc1ccc(Cl)cc1)C(=O)O (stereo not given) .
-- reply 73 to 75 °C

-- ask Same read-out for CN(C)C(=O)Oc1c(N2CCCC2)c(=O)n(-c2ccccc2)c2ncccc12 ?
-- reply 218 to 220 °C

-- ask Same read-out for OC1(C#Cc2ccc(-c3ccccn3)cc2)CN2CCC1CC2 (stereo not given) ?
-- reply 205 to 206 °C

-- ask Same read-out for COc1ccccc1CN[C@H]1CCCN[C@H]1c1ccsc1 (relative stereo) ?
-- reply > 239 °C

-- ask Same read-out for CCOC(=O)c1cn(-c2nc(NC(C)(C)CC(C)(C)C)ccc2F)c2c(Cl)c(F)c(F)cc2c1=O ?
-- reply 178 to 180 °C

-- ask Same read-out for COc1cc(Nc2ccccn2)ccc1C(N)=O ?
-- reply 226 to 227 °C

-- ask Same read-out for CC(=O)OCC1OC(n2cc(C(I)=CI)c(=O)[nH]c2=O)CC1OC(C)=O (stereo not given) ?
-- reply 76 to 78 °C

-- ask Same read-out for O=C(O)CS(=O)(=O)c1ccc2c(-c3ccc(Cl)cc3)noc2c1Cl ?
-- reply 212 to 213 °C

-- ask Same read-out for Nc1c(-c2nc(-c3ccco3)n[nH]2)cnn1CCc1ccccc1 ?
-- reply 175 to 176 °C

-- ask Same read-out for CCN1c2ncccc2C(=O)N(C)c2ccc(-c3cnn(C(C)=O)c3)nc21 ?
-- reply 186 to 188 °C

-- ask Same read-out for O=c1[nH]c2cccnc2n1-c1ccccn1 ?
-- reply 235 to 238 °C

-- ask Same read-out for COc1ccc(Cl)c(Oc2c(CO)nc(N3CCOCC3)nc2NS(=O)(=O)c2ccc(C(C)C)cn2)c1 ?
-- reply 105 °C

-- ask Same read-out for CONS(=O)(=O)c1ccc(Cl)c([N+](=O)[O-])c1 ?
-- reply 69.5 to 71 °C

-- ask Same read-out for CCSNc1c(C#N)cnn1-c1c(Cl)cc(C(F)(F)F)cc1Cl ?
-- reply 157 to 158 °C

-- ask Same read-out for CC(=O)Nc1c(C(=O)c2ccc3ccccc3c2)[nH]c2cc(Cl)ccc12 ?
-- reply 167 to 169 °C

-- ask Same read-out for CS(=O)(=O)n1c2cc(O)c(O)cc2c2cc(O)c(O)cc21 ?
-- reply 278 to 280 °C

-- ask Same read-out for O=CN1CCN(C2=C(O)C(=O)c3ccccc3C2=O)CC1 ?
-- reply 200 to 203 °C

-- ask Same read-out for CCC(=O)N1N=C(c2ccc(N)c(C)c2)c2cc3c(cc2C[C@@H]1C)OCO3 ?
-- reply 176 to 178 °C

-- ask Same read-out for O=c1cc(-c2ccncn2)nc2n1CCOCC2Br (racemic) ?
-- reply 176 to 178 °C

-- ask Same read-out for CN1C(=O)[C@H](NC(=O)CCC2CCCCC2)[N+]([O-])=C(c2ccccc2)c2ccccc21 ?
-- reply 222 to 224 °C

-- ask Same read-out for NC(=O)C(F)(F)C1(c2ccc(Cl)cc2Cl)CO1 (stereo not given) ?
-- reply 100 to 101 °C

-- ask Same read-out for CCCCCCCCCCCCCCCCCc1cc(O)c(CC)c(=O)o1 ?
-- reply 101 to 102 °C

-- ask Same read-out for O=C(O)c1ccccc1-c1ccc2c(C(=O)NCC34CC5CC(CC(C5)C3)C4)c(Cl)ccc2n1 ?
-- reply 156 to 158 °C

-- ask Same read-out for CCOC(=O)C1=C(C)NC(N)=C(C(=O)OCC)C1c1ccccc1C (stereo not given) ?
-- reply 130 °C

-- ask Same read-out for CCCn1c(C)nc2cc(C(=O)O)ccc21 ?
-- reply > 260 °C

-- ask Same read-out for CC(=O)NC(C(=O)Nc1ccc(C(=O)O)cc1)c1ccc2c(c1)C(C)(C)CCC2(C)C (stereo not given) ?
-- reply 258 to 259 °C

-- ask Same read-out for COc1cc(OC)n2nc(S(=O)(=O)Nc3c(Cl)cccc3Cl)nc2n1 ?
-- reply 232 to 234 °C

-- ask Same read-out for C=CCc1cc(C(=O)c2ccc(Cl)c(S(=O)(=O)N=CN(C)C)c2)c(Cl)c(Cl)c1O ?
-- reply 190 to 193 °C

-- ask Same read-out for O=C(Nc1ccc(-c2ccc(C(=O)N3CCN4CCC3CC4)o2)cc1)c1ccccc1 ?
-- reply 254 °C

-- ask Same read-out for COc1ccccc1C(C#N)(CC1CCCCO1)Cn1cncn1 (stereo not given) ?
-- reply 120 to 121 °C

-- ask Same read-out for CCCCOCCOc1ccc(-c2cc(/C=C(\C)C(=O)O)c3c(c2)CCCN3C)cc1 ?
-- reply 133 to 134 °C

-- ask Same read-out for Cc1cc(SCC#Cc2cccc(C(F)(F)F)c2)ccc1OCC(=O)O ?
-- reply 81 to 82 °C

-- ask Same read-out for COC(=O)C=CC(=O)c1cc(Cl)ccc1N ?
-- reply 111 to 112 °C

-- ask Same read-out for O=C(Nc1cccc(C(F)(F)F)c1)c1ccccc1NCCc1ccncc1 ?
-- reply 151 to 152 °C

-- ask Same read-out for CCOC(=O)C=Cc1cc([N+](=O)[O-])ccc1Cl ?
-- reply 138 to 140 °C

-- ask Same read-out for CC(C)(C)NC(=O)Nc1nc2nc(N)ncc2cc1-c1cccc(Cl)c1Cl ?
-- reply 356 to 358 °C

-- ask Same read-out for CCOP(=O)(Cc1ccc(NC(=O)CCc2cnoc2-c2ccc(F)cc2)cc1)OCC ?
-- reply 134 to 135 °C

-- ask Same read-out for NC(=O)c1cc2c(cc1OCC1CCCCC1)OCCC[C@H]2O ?
-- reply 164 to 165 °C

-- ask Same read-out for CC1(C)CC2(CC(C)(C)c3ccc(Oc4ccc([N+](=O)[O-])cc4)cc32)c2cc(Oc3ccc([N+](=O)[O-])cc3)ccc21 ?
-- reply 200 to 202 °C

-- ask Same read-out for COc1cc([N+](=O)[O-])c(CO)c(OC)c1OC ?
-- reply 69 to 70 °C
